Answer each item with its documented inhibition at 0.1 µM.
molecular target: human recombinant renin (Homo sapiens, UniProt P00797); construct: purchased Cayman 10006270; experiment: Inhibition of human recombinant renin (modified Cayman renin inhibitor screening assay, fluorescence); type: biochemical; conditions: 0.1 μM compound; 37° C., 30 mins; human recombinant renin; read-out: Renin inhibition (percent inhibition of renin activity) at 0.1 μM
Counter-ions that a name gives are not always drawn.

Item: COc1ccccc1COCCCOc1ccc(C(=O)N[C@H]2CCNCC2C(=O)N(Cc2cccc(C)c2C)C2CC2)cc1 (stereo partly drawn) [Example 28, hydrochloride] | inhibition at 0.1 µM: 93%

Item: Cc1cc(Cl)c(OCCOc2ccc(C(=O)N[C@H]3CCNCC3C(=O)N(Cc3ccccc3Cl)C3CC3)cc2)c(Cl)c1 (stereo partly drawn) [Example 30, hydrochloride] | inhibition at 0.1 µM: 87%

Item: Cc1cc(Cl)c(OCCOc2ccc(C(=O)N[C@@H]3CCNCC3C(=O)N(Cc3cccc(C)c3C)C3CC3)cc2)c(Cl)c1 (stereo partly drawn) [Example 24, hydrochloride] | inhibition at 0.1 µM: 83%

Item: COc1ccccc1CN(C(=O)C1CNCC[C@@H]1NC(=O)c1ccc(OCCOc2c(Cl)cc(C)cc2Cl)cc1)C1CC1.Cl (stereo partly drawn) [Example 31, hydrochloride] | inhibition at 0.1 µM: 91%

Item: COc1cccc(CN(C(=O)C2CNCC[C@@H]2NC(=O)c2ccc(OCCOc3c(Cl)cc(C)cc3Cl)cc2)C2CC2)c1C (stereo partly drawn) [Example 37, hydrochloride] | inhibition at 0.1 µM: 81%

Item: Cc1cc(Cl)c(OCCOc2ccc(C(=O)NC3CCNCC3C(=O)N(Cc3ccc(Cl)cc3Cl)C3CC3)cc2)c(Cl)c1 (mixture of isomers) | inhibition at 0.1 µM: 81%

---

Answer each item with its documented inhibition at 0.01 µM.
Target: human recombinant renin (Homo sapiens)
Construct: purchased Cayman 10006270
Sequence (P00797 67-406): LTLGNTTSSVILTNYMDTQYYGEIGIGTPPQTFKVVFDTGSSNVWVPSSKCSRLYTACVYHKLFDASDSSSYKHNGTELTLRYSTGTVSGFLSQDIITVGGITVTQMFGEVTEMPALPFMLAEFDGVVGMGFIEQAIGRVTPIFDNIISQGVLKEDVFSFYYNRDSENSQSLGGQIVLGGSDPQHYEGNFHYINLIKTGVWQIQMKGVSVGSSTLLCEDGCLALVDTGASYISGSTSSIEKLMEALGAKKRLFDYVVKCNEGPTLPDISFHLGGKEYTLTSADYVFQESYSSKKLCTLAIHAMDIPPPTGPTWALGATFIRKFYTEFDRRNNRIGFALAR
Assay: Inhibition of human recombinant renin (modified Cayman renin inhibitor screening assay, fluorescence)
Assay type: biochemical
Details: 0.01 μM compound; 37° C., 30 mins; human recombinant renin; read-out: Renin inhibition (percent inhibition of renin activity) at 0.01 μM
Where a name gives a salt, the structure may show the parent alone.

Value sought: inhibition at 0.01 µM, system human recombinant renin (Homo sapiens), item Cc1cc(Cl)c(OCCOc2ccc(C(=O)N[C@@H]3CCNCC3C(=O)N(Cc3ccc(C)c(C)c3)C3CC3)cc2)c(Cl)c1 (stereo partly shown) [Example 22, hydrochloride] . Result: < 10%

Value sought: inhibition at 0.01 µM, system human recombinant renin (Homo sapiens), item Cc1cc(C)cc(CN(C(=O)C2CNCCC2NC(=O)c2ccc(OCCOc3c(Cl)cc(C)cc3Cl)cc2)C2CC2)c1 (stereo not shown) [Example 10] . Result: < 10%

Value sought: inhibition at 0.01 µM, system human recombinant renin (Homo sapiens), item COc1ccccc1COCCCOc1ccc(C(=O)N[C@H]2CCNCC2C(=O)N(Cc2ccccc2OC)C2CC2)cc1 (stereo partly shown) [Example 33, hydrochloride] . Result: < 10%

Value sought: inhibition at 0.01 µM, system human recombinant renin (Homo sapiens), item Cc1cc(C)cc(CN(C(=O)C2CNCCC2NC(=O)c2ccc(OCCOc3c(Cl)cccc3Cl)cc2)C2CC2)c1 (stereo not shown) [Example 4] . Result: < 10%

Value sought: inhibition at 0.01 µM, system human recombinant renin (Homo sapiens), item COCCCOc1cccc(CN(C(=O)C2CNCCC2NC(=O)c2ccc(OCCOc3c(Cl)cccc3Cl)cc2)C2CC2)c1 (stereo not shown) [Example 3] . Result: < 10%

Value sought: inhibition at 0.01 µM, system human recombinant renin (Homo sapiens), item Cc1cc(Cl)c(OCCOc2ccc(C(=O)N[C@H]3CCNCC3C(=O)N(Cc3ccccc3Cl)C3CC3)cc2)c(Cl)c1 (stereo partly shown) [Example 30, hydrochloride] . Result: < 10%

Value sought: inhibition at 0.01 µM, system human recombinant renin (Homo sapiens), item COc1ccc(CN(C(=O)C2CNCCC2NC(=O)c2ccc(OCCOc3c(Cl)cc(C)cc3Cl)cc2)C2CC2)cc1OC (stereo not shown) [Example 8] . Result: < 10%

From: patent US20120115907A1
